Assay: Human in vivo PK data: concentration-dose ratio (CDR) and toxicokinetic variability factor (TKVF);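 further: Literature-pooled human in vivo PK data, plasma, serum or cord blood concentrations per daily dose, weighted by study population size across non-pregnant, pregnant and fetal groups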
Conditions: Pregnant population; TKVF95 = p95 / weighted mean concentration-dose ratio
I'd appreciate it if you could supply TKVF values for the items below.
Give bare numbers.

Batch request: TKVF for each of the following compounds.
1. CC1=C(/C=C/C(C)=C/C=C/C(C)=C/CO)C(C)(C)CCC1
2. O=C(O)c1ccccc1O [Salicylate]
3. CCN(CC)CCNC(=O)c1cc(Cl)c(N)cc1OC [Metoclopramide]
4. C[C@@H]1CCO[C@H]2Cn3cc(C(=O)NCc4ccc(F)cc4F)c(=O)c(O)c3C(=O)N12
5. CCCC(CCC)C(=O)O

[1.64, 2.34, 2.71, 2.64, 1.85]

Attribution: paper PMC12256496
